Listing of entries alongside the reported HepG2/STAT3 luciferase assay IC50.
# STUDY_TARGET: T1, hIL-6R on hIL-6-responsive human cells (XG-1 myeloma line, HepG2 hepatoma line) (human, UniProt P08887 20-468)
# T1 sequence (looked up): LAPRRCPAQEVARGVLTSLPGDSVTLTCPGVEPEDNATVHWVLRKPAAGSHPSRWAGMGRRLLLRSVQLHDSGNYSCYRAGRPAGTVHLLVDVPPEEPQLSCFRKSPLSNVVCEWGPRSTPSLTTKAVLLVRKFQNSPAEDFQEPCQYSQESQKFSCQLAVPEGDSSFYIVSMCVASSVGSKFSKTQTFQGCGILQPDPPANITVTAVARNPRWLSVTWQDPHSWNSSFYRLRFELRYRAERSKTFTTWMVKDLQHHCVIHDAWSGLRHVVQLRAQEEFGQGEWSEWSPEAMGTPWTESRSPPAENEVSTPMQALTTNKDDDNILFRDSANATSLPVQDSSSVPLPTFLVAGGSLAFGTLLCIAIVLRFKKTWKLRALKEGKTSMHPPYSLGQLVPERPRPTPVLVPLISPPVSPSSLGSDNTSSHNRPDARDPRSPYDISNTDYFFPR
# ASSAY_REMARKS: cell-based or functional assay

BINDER	HepG2/STAT3 luciferase assay IC50
VQ8A9-6 hIgG1 (antibody, V domains shown, Human IgG1 constant region) VH: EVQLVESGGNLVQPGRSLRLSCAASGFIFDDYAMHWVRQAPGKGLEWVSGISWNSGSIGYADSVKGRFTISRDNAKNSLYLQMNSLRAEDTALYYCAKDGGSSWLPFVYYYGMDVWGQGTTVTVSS VL: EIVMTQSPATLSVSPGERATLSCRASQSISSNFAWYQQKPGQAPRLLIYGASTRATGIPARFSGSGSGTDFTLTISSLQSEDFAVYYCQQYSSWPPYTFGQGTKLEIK	0.13 nM
VV1G4-7 (antibody, IgG2a, V domains shown, Human variable regions with mouse constant region) VH: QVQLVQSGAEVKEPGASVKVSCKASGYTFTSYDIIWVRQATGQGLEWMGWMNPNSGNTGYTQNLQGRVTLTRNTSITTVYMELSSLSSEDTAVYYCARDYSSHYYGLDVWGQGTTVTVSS VL: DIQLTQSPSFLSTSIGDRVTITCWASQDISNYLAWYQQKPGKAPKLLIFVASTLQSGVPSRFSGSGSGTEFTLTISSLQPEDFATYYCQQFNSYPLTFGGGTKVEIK	0.578 nM
VQ8A9-6 hIgG4 (antibody, V domains shown, Human IgG4 constant region) VH: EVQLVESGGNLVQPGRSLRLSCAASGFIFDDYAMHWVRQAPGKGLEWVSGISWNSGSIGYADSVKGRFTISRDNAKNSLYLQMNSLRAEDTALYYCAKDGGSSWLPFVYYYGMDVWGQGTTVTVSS VL: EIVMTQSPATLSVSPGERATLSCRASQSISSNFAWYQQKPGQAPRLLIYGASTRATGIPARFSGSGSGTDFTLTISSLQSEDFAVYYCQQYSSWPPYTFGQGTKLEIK	0.185 nM
